Provide the recorded microsomal CLint for the entries that follow.
- Protocol text: Intrinsic clearance in human liver microsomes
- Type: ADME, Microsome
- Measurement conditions: read-out: CLH
Answers are plain numbers, in µL/min/mg.

Field: example entries. Status: answers known.
Cc1ncc(NC(=O)c2ccnc(C(C)(F)F)c2)cc1-c1cc(NCCO)nc(N2CCOCC2)c1
10.4
Cc1ncc(NC(=O)c2cccc(C(F)(F)F)c2)cc1-c1cc(N2CCOCC2)c(OC2CCOCC2)nn1
7.7

Would you mind giving microsomal CLint for every molecule in the list below?
1. Cc1ccc(NC(=O)c2cccc(C(F)(F)F)c2)cc1-c1cc(N2CCOCC2)nc(NCCO)n1
2. Cc1ccc(NC(=O)c2ccnc(C(C)(C)C#N)c2)cc1-c1cc(N2CCOCC2)c(=O)n(C)n1
3. CO[C@H]1COCC[C@@H]1Oc1ncc(-c2cc(NC(=O)c3cccc(C(F)(F)F)c3)cnc2C)cc1N1CCOCC1
4. Cc1ncc(NC(=O)c2cccc(C(F)(F)F)c2)cc1-c1cnc(OC2CCOCC2)c(N2CCOCC2)c1
5. Cc1ccc(NC(=O)c2cccc(C(F)(F)F)c2)cc1-c1cc(N2CCOCC2)ncn1
6. Cc1ncc(NC(=O)c2cccc(C(F)(F)F)c2)cc1-c1cnc(O[C@H]2CCOC[C@H]2F)c(N2CCOCC2)c1

Ans.
[48, 15.5, 302, 94, 43.3, 65.5]

---

- Protocol text: Drug level in dog hepatocytes treated with RAF709 at 10 uM measured after 3 hrs by LC-MS/MS analysis
- Type: ADME, cell-based, Canis lupus familiaris, Hepatocyte
Reported metric: Drug uptake

Field: example entries. Status: answers known.
Cc1ncc(NC(=O)c2cccc(C(F)(F)F)c2)cc1-c1c[nH]c(=O)c(N2CCOCC2)c1
Active
Cc1ncc(NC(=O)c2cccc(C(F)(F)F)c2)cc1-c1cnc(OC(CCO)CCO)c(N2CCOCC2)c1
Active
Cc1ncc(NC(N)=O)cc1-c1cnc(OC2CCOCC2)c(N2CCOCC2)c1
Active
Cc1ncc(NC(=O)c2cccc(C(F)(F)F)c2)cc1-c1cnc(OC2CCOCC2)c(N(CCO)CCO)c1
Active

Qu. Could you please provide reported Drug uptake for "Cc1ncc(N)cc1-c1cnc(OC2CCOCC2)c(N2CCOCC2)c1" ? Thanks!
Ans. Active

---

- Protocol text: Tmax in nude rat xenografted with human Calu6 cells harboring KRAS Q61K mutant at 75 mg/kg, po administered daily for 18 days starting from day 13 post tumor implantation and measured on day 31
- Type: ADME, organism-based
- Measurement conditions: in vivo
Reported metric: Tmax (h)
Give bare numbers, in h.

Qu. Could you please provide reported Tmax for "Cc1ccc(NC(=O)c2ccnc(C(F)(F)F)c2)cc1-c1cc(OCCO)nc(N2CCOCC2)c1" ? Thanks!
Ans. 2

---

- Protocol text: Cmax in dog at 0.4 mg/kg, po
- Type: ADME, organism-based, Canis lupus familiaris
- Set-up: dose 0.4 mg/kg, route oral
- Measurement conditions: in vivo
Reported metric: Cmax

Qu. Could you please provide reported Cmax for "Cc1ccc(NC(=O)c2ccnc(C(F)(F)F)c2)cc1-c1cc(OCCO)nc(N2CCOCC2)c1" ? Thanks!
Ans. 400 nM

---

- System under test: Serine/threonine-protein kinase B-raf (Homo sapiens)
- Sequence (P15056 whole entry): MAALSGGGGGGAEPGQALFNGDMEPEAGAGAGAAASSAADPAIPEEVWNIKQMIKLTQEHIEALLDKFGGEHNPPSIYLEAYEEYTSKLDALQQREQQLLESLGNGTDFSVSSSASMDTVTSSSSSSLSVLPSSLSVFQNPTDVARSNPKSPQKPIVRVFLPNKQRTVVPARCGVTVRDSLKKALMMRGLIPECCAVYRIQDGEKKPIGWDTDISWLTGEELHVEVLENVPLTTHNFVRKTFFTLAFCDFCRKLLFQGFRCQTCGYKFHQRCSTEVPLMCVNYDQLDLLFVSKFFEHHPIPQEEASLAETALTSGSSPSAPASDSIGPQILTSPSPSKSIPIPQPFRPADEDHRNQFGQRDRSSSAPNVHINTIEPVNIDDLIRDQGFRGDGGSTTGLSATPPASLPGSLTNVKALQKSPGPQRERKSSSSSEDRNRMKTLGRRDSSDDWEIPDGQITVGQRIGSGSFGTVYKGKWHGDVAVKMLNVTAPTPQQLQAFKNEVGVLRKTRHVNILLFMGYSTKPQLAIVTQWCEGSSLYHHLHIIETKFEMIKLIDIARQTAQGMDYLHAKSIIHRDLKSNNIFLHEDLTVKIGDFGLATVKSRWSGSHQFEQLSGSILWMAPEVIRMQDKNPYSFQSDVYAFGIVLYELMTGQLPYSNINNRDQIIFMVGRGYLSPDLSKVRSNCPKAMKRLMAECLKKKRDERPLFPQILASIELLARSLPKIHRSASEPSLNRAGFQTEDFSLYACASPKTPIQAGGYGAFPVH
Reported metric: pKd
Give bare numbers, as −log10 of the molar value.

Qu. Could you please provide reported pKd for "Cc1ccc(NC(=O)c2ccnc(C(F)(F)F)c2)cc1-c1cc(OCCO)nc(N2CCOCC2)c1" ? Thanks!
Ans. 8.89

---

- Protocol text: Protein binding in human plasma
- Assay type: ADME, cell-free
- Measurement conditions: read-out: PPB (converted)
Reported metric: fraction unbound
One number for each entry.

Qu. Could you please provide reported fraction unbound for Cc1ccc(NC(=O)c2ccnc(C(F)(F)F)c2)cc1-c1cc(OCCO)nc(N2CCOCC2)c1 [NAPORAFENIB] ? Thanks!
Ans. 0.02

---

- System under test: RAF proto-oncogene serine/threonine-protein kinase (Homo sapiens, UniProt P04049)
- Sequence (P04049 whole entry): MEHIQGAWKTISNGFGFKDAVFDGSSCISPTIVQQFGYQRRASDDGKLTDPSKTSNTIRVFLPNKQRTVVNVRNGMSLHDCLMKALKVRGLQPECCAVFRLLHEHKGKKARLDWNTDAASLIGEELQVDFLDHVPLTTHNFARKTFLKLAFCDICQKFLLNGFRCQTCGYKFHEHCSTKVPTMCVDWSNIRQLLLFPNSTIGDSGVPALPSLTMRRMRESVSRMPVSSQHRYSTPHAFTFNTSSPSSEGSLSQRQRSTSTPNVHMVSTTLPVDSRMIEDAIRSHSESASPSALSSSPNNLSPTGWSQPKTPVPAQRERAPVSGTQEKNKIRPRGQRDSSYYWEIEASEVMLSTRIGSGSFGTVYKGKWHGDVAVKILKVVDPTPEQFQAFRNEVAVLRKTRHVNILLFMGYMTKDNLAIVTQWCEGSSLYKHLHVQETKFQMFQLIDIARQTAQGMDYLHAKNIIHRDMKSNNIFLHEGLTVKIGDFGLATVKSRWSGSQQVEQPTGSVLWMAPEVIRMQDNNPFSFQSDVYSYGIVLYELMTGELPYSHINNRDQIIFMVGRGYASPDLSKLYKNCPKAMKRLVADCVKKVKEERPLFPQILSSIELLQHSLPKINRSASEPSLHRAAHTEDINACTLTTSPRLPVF
- Protocol text: Inhibition of CRAF in human Calu6 cells assessed as reduction MEK phosphorylation measured after 1 hr by sandwich ELISA
Provide the recorded pEC50 for the entries that follow.
Give bare numbers, as −log10 of the molar value.

Field: example entries. Status: answers known.
Cc1ncc(NC(=O)c2ccnc(C(C)(F)F)c2)cc1-c1cc(NCCO)nc(N2CCOCC2)c1
7.57
Cc1ncc(NC(=O)c2cccc(C(F)(F)F)c2)cc1-c1cc(N2CCOCC2)c(OC2CCOCC2)nn1
8.10

Qu. Could you please provide reported pEC50 for "CO[C@H]1COCC[C@@H]1Oc1ncc(-c2cc(NC(=O)c3cccc(C(F)(F)F)c3)cnc2C)cc1N1CCOCC1" ? Thanks!
Ans. 7.68

---

- Protocol text: Apparent permeability across basolateral to apical side in human Caco2 cells at pH 7.4 by LC/MS/MS analysis
- Format: ADME, cell-based
- Measurement conditions: Caco-2, pH 7.4
Reported metric: Papp B→A

Field: example entries. Status: answers known.
Cc1ncc(NC(=O)c2cccc(C(F)(F)F)c2)cc1-c1cc(N2CCOCC2)c(OC2CCOCC2)nn1
51 ×10⁻⁶ cm/s
Cc1ccc(NC(=O)c2ccnc(C(C)(C)C#N)c2)cc1-c1cc(N2CCOCC2)c(=O)n(C)n1
49 ×10⁻⁶ cm/s

Would you mind giving Papp B→A for every compound in the list below?
1. Cc1ncc(NC(=O)c2cccc(C(F)(F)F)c2)cc1-c1cnc(O[C@H]2CCOC[C@H]2F)c(N2CCOCC2)c1
2. Cc1ncc(NC(=O)c2cccc(C(F)(F)F)c2)cc1-c1c[nH]c(=O)c(N2CCOCC2)c1
3. Cc1ccc(NC(=O)c2ccnc(C(F)(F)F)c2)cc1-c1cc(OCCO)nc(N2CCOCC2)c1 [NAPORAFENIB]
4. Cc1ncc(NC(=O)c2ccnc(C(C)(F)F)c2)cc1-c1cc(NCCO)nc(N2CCOCC2)c1
5. Cc1ccc(NC(=O)c2ccnc(C(F)(F)F)c2)cc1-c1cc(NCCO)nc(N2CCOCC2)c1
6. Cc1ccc(NC(=O)c2cccc(C(F)(F)F)c2)cc1-c1cc(N2CCOCC2)nc(NCCO)n1
7. Cc1ccc(NC(=O)c2cccc(C(F)(F)F)c2)cc1-c1cc(N2CCOCC2)ncn1

Ans.
1: 20 ×10⁻⁶ cm/s; 2: 43 ×10⁻⁶ cm/s; 3: 19 ×10⁻⁶ cm/s; 4: 34 ×10⁻⁶ cm/s; 5: 53 ×10⁻⁶ cm/s; 6: 30 ×10⁻⁶ cm/s; 7: 41 ×10⁻⁶ cm/s

---

- System under test: UniProt P09619
- Sequence (P09619 whole entry): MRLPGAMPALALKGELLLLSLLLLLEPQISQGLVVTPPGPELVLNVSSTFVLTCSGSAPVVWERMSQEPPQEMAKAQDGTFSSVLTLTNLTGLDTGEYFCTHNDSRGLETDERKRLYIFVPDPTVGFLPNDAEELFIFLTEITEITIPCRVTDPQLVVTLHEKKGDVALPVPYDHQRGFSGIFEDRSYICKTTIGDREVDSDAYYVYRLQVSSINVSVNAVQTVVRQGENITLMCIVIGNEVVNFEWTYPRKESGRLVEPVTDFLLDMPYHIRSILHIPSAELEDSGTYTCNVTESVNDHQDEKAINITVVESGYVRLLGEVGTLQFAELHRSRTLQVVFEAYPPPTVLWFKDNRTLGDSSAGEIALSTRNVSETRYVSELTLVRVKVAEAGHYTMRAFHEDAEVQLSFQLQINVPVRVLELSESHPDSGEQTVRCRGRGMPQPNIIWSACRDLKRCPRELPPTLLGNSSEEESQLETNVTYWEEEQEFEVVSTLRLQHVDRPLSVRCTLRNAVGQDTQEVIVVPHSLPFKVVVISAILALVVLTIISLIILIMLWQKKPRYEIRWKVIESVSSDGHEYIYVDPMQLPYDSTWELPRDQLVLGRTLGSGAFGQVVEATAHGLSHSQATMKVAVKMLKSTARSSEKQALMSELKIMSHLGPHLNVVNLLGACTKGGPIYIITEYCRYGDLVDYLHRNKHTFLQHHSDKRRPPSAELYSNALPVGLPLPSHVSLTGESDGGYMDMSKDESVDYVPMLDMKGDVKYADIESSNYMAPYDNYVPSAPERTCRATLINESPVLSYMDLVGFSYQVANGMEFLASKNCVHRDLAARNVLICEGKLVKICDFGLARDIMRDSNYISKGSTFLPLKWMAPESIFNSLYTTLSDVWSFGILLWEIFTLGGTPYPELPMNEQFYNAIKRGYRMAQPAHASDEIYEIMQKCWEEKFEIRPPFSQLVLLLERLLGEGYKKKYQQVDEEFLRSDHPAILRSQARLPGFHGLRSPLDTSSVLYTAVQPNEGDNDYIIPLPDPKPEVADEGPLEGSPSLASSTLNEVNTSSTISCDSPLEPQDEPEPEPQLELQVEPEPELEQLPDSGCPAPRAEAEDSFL
Reported metric: pKd
Give bare numbers, as −log10 of the molar value.

Qu. Could you please provide reported pKd for "Cc1ccc(NC(=O)c2ccnc(C(F)(F)F)c2)cc1-c1cc(OCCO)nc(N2CCOCC2)c1" ? Thanks!
Ans. 7.85

---

- Protocol text: Tmax in nude rat xenografted with human Calu6 cells harboring KRAS Q61K mutant at 15 mg/kg, po administered daily for 18 days starting from day 13 post tumor implantation and measured on day 31
- Format: ADME, organism-based
- Measurement conditions: in vivo
Reported metric: Tmax (h)
Give bare numbers, in h.

Qu. Could you please provide reported Tmax for "Cc1ccc(NC(=O)c2ccnc(C(F)(F)F)c2)cc1-c1cc(OCCO)nc(N2CCOCC2)c1" ? Thanks!
Ans. 3

---

- Protocol text: Volume of distribution at steady state in dog at 0.2 mg/kg, iv or 0.4 mg/kg, po
- Type: ADME, organism-based, Canis lupus familiaris
- Measurement conditions: in vivo, read-out: Vdss
Reported metric: Vd (L/kg)
One number for each entry, in L/kg.

Qu. Could you please provide reported Vd for "Cc1ccc(NC(=O)c2ccnc(C(F)(F)F)c2)cc1-c1cc(OCCO)nc(N2CCOCC2)c1" ? Thanks!
Ans. 1.7

---

- Protocol text: Stability in human hepatocytes assessed as parent compound remaining at 10 uM measured after 3 hrs by LC-MS/MS analysis
- Assay type: ADME, cell-based, Hepatocyte
- Measurement conditions: read-out: Stability
Reported metric: remaining at 3 h, 10 µM (%)
Numbers only, in %.

Qu. Could you please provide reported remaining at 3 h, 10 µM for "Cc1ncc(NC(=O)c2cccc(C(F)(F)F)c2)cc1-c1cnc(OC2CCOCC2)c(N2CCOCC2)c1" ? Thanks!
Ans. 44

---

- Protocol text: Lipophilicity, log P of the compound at pH 6.5
- Format: physicochemical
- Measurement conditions: buffer
Reported metric: logD

Qu. Could you please provide reported logD for Cc1ccc(NC(=O)c2ccnc(C(F)(F)F)c2)cc1-c1cc(OCCO)nc(N2CCOCC2)c1 [NAPORAFENIB] ? Thanks!
Ans. > 3

---

- Protocol text: Apparent permeability across apical to basolateral side in human Caco2 cells at pH 7.4 by LC/MS/MS analysis
- Assay type: ADME, cell-based
- Measurement conditions: Caco-2, pH 7.4
Reported metric: Papp A→B (×10⁻⁶ cm/s)
Numbers only, in ×10⁻⁶ cm/s.

Field: example entries. Status: answers known.
Cc1ncc(NC(=O)c2cccc(C(F)(F)F)c2)cc1-c1cnc(O[C@H]2CCOC[C@H]2F)c(N2CCOCC2)c1
16
Cc1ncc(NC(=O)c2cccc(C(F)(F)F)c2)cc1-c1cc(N2CCOCC2)c(OC2CCOCC2)nn1
4.4
Cc1ccc(NC(=O)c2ccnc(C(F)(F)F)c2)cc1-c1cc(OCCO)nc(N2CCOCC2)c1
9

Please examine the following record next.
Qu. Could you please provide reported Papp A→B for "Cc1ccc(NC(=O)c2ccnc(C(C)(C)C#N)c2)cc1-c1cc(N2CCOCC2)c(=O)n(C)n1" ? Thanks!
Ans. 6.3
